Values from patent US8791143B2

Catalogue of molecules with associated pest or weed control at 20 ppm
Tested on: adult Musca domestica
method notes: Musca domestica test (MUSCDO)
Format: in vivo
run parameters: 1152 h, 20 ppm, after 48 days, read-out: activity (kill in %)
Write it as a number; the unit % goes unstated.

Example cases with answers are listed next.
Q: Find the recorded pest or weed control at 20 ppm belonging to Cc1cc(C#N)cc(C(=O)NC2(c3cccc(C(F)(F)F)c3)CC2)c1NC(=O)c1cc(Cn2nnc(C(F)(F)F)n2)nn1-c1ncccc1Cl and report it.
A: 80

Q: How about Cc1cc(C#N)cc(C(=O)NC2CCN(Cc3ccccc3)C2)c1NC(=O)c1cc(Cn2nnc(C(F)(F)F)n2)nn1-c1ncccc1Cl (stereo not shown) ?
A: 80

Q: How about Cc1cc(C#N)cc(C(=O)NC2COC2)c1NC(=O)c1cc(Cn2nnc(C(F)(F)F)n2)nn1-c1c(F)cccc1F ?
A: 100

Next item in the queue.
Q: Find the recorded pest or weed control at 20 ppm belonging to Cc1cc(C#N)cc(C(=O)NCc2ccc(S(F)(F)(F)(F)F)cc2)c1NC(=O)c1cc(Cn2nnnc2C(F)(F)F)nn1-c1ncccc1Cl and report it.
A: 80

---

method notes: log P by HPLC on reversed-phase columns (EEC Directive 79/831 Annex V.A8)
Type: physicochemical
run parameters: pH 2.7, log P
readout kind: chromatographic logP
Answer as a number with no unit attached.

Q: Find the recorded chromatographic logP belonging to O=C(NCc1ccccc1Cl)c1cc(Br)cc(Cl)c1NC(=O)c1cc(Cn2nnc(C(F)(F)F)n2)nn1-c1ncccc1Cl [Example 203] and report it.
A: 4.07

Q: How about Cc1cc(C#N)cc(C(=O)NC2COC2)c1NC(=O)c1cc(Cn2nnc(C(F)(F)C(F)(F)F)n2)nn1-c1ncccc1Cl [Example 14] ?
A: 2.87

Next item in the queue.
Q: Find the recorded chromatographic logP belonging to Cc1cc(Cl)cc(C(=O)NCc2ccccc2Cl)c1NC(=O)c1cc(Cn2nnc(C(F)(F)F)n2)nn1-c1ncccc1Cl [Example 82] and report it.
A: 4.06

---

method notes: log P by HPLC on reversed-phase columns (EEC Directive 79/831 Annex V.A8)
Format: physicochemical
run parameters: reversed-phase C18 HPLC column, pH 2.7, HPLC reversed-phase C18, acidic range pH 2.7 (HCOOH); only or first value of the cell; read-out: log P
Catalogue of compounds with associated chromatographic logP

Example cases with answers are listed next.
Q: Find the recorded chromatographic logP belonging to Cc1cc(C#N)cc(C(=O)NCc2cccc(OC(F)(F)F)c2)c1NC(=O)c1cc(Cn2nnc(C(F)F)n2)nn1-c1ncccc1Cl and report it.
A: 3.42

Q: How about Cc1cc(C#N)cc(C(=O)NCc2ccccc2OC(F)(F)F)c1NC(=O)c1cc(Cn2nnc(C(F)(F)F)n2)nn1-c1ncccc1Cl ?
A: 3.89

Next item in the queue.
Q: Find the recorded chromatographic logP belonging to Cc1cc(Cl)cc(C(=O)NCc2cccc(OC(F)(F)F)c2)c1NC(=O)c1cc(Cn2nnc(C(F)F)n2)nn1-c1ncccc1Cl and report it.
A: 3.79

---

method notes: log P by HPLC on reversed-phase columns (EEC Directive 79/831 Annex V.A8)
Format: physicochemical
run parameters: pH 2.7, log P
readout kind: chromatographic logP
Answer as a number with no unit attached.

Q: Find the recorded chromatographic logP belonging to Cc1cc(C#N)cc(C(=O)NC2COC2)c1NC(=O)c1cc(Cn2nc(C(F)(F)F)nc2C(F)(F)F)nn1-c1ncccc1Cl and report it.
A: 2.95

Q: How about Cc1cc(Cl)cc(C(=O)N[C@H](C)c2ccccc2)c1NC(=O)c1cc(Cn2nnc(C(F)(F)F)n2)nn1-c1ncccc1Cl ?
A: 3.92

Q: How about Cc1cc(Cl)cc(C(=O)NC2COC2)c1NC(=O)c1cc(Cn2nnc(C(F)F)n2)nn1-c1ncccc1Cl ?
A: 2.37

Q: How about Cc1cc(Cl)cc(C(=O)NC2CCS(=O)(=O)C2)c1NC(=O)c1cc(Cn2nnc(C(F)(F)F)n2)nn1-c1ncccc1Cl (centres unmarked) ?
A: 2.78

Q: How about Cc1cc(I)cc(C(=O)NC2COC2)c1NC(=O)c1cc(Cn2nnc(C(F)(F)F)n2)nn1-c1ncccc1Cl ?
A: 3
